Source of measurements: ChEMBL document CHEMBL1158462

Listed next: entries and their corresponding IC50.
- System: MCF7
- Assay: cells
- Assay type: functional, cell-based
- Applied conditions: Homo sapiens
- Description: Antitumor activity against human MCF7 cells

Molecule: Cc1cccc(NC(=O)c2ccc(CNC(=O)CCCCCCC(=O)NCCCNCCCCNCCC(c3ccccc3)c3ccccc3)cc2)c1
Observed measurement: > 30 µM

Molecule: CC(C)(C)c1ccc(CNCCCCNC(=O)CCCCCCC(=O)c2ncco2)cc1
Observed measurement: 27 µM

Write down the reported IC50 (system: MCF7) of CCNCCCNC/C=C\CNCCCNCC
9.25 µM

Write down the reported IC50 (system: MCF7) of Nc1ccccc1NC(=O)c1ccc(CNC(=O)CCCCCCCCC(=O)NCCCNCCCCNCCC(c2ccccc2)c2ccccc2)cc1
> 30 µM

Write down the reported IC50 (system: MCF7) of Nc1ccccc1NC(=O)c1ccc(CNC(=O)CCCCCCCC(=O)NCCCNCCCCNCCC(c2ccccc2)c2ccccc2)cc1
> 30 µM

Write down the reported IC50 (system: MCF7) of O=C(CCCCCCC(=O)NCc1ccc(C(=O)O)cc1)NCCCNCCCCNCC(c1ccccc1)c1ccccc1
> 30 µM

Write down the reported IC50 (system: MCF7) of Nc1ccccc1NC(=O)c1ccc(CNC(=O)CCCCC(=O)NCCCNCCCCNCc2ccccc2-c2ccccc2)cc1
> 30 µM
